Origin of values: the supplement of paper PMC7877785

- method summary: self-splicing fitness, log relative to wild type (ln ratio); higher = more splicing; Tetrahymena group I intron in knt gene, E. coli kanamycin selection, DiMSum; sequences stand for … in CUCUCU…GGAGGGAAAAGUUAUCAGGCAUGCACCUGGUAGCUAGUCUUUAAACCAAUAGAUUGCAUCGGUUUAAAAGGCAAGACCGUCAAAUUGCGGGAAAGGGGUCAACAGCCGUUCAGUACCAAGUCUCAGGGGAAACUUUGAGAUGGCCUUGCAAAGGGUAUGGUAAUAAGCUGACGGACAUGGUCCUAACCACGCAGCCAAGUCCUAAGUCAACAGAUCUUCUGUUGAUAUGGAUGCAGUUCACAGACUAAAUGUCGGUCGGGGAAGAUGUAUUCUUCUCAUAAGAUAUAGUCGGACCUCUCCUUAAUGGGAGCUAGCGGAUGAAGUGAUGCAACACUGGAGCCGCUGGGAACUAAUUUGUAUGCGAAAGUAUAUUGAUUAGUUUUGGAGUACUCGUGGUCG;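 also: selection with 25 µg/mL kanamycin versus none on LB agar overnight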
- experimental parameters: 30 °C
Note to self: values exactly at -3 are criterion met. So self-splicing fitness (ln) at or above -3 is criterion met, below is criterion not met.

Check this sequence for self-splicing fitness (ln) at or above -3: CAGAAGCAAUAUUACGCCAA
criterion not met

Test whether the sequence CAUCAGCAAUAUUACGGAUG records self-splicing fitness (ln) of -3 or higher.
criterion not met

Is self-splicing fitness (ln) for GGAUAGCAAUAUUACGUUGA at or above -3?
criterion not met

Threshold query (self-splicing fitness (ln) >= -3) on GUCAAGCAAUAUUACGCGUA
criterion met

Determine whether this sequence has self-splicing fitness (ln) no lower than -3: ACGAAGCAAUAUUACGAUUA
criterion met

Answer whether self-splicing fitness (ln) of UGGAAGCAAUAUUACGGUCU is greater than or equal to -3.
criterion met

For this sequence, is measured self-splicing fitness (ln) -3 or higher? UAUUAGCAAUAUUACGGACC
criterion met

Determine whether measured self-splicing fitness (ln) meets or exceeds -3 for AGGCAGCAAUAUUACGUAAU
criterion met

Confirm if self-splicing fitness (ln) reported for the sequence UGCGAGCAAUAUUACGUAUG is -3 or above.
criterion not met

I'd appreciate it if you could say whether GGCCAGCAAUAUUACGAACA has self-splicing fitness (ln) at least equal to -3.
criterion not met

Exam item: decide whether the reported self-splicing fitness (ln) for CGCAAGCAAUAUUACGAAUC is at least -3.
criterion not met

Please indicate if the recorded self-splicing fitness (ln) for AGUCAGCAAUAUUACGAGGG meets or exceeds -3.
criterion not met

Please tell me: is the sequence CGUUAGCAAUAUUACGUCCG at or over -3 in terms of self-splicing fitness (ln)?
criterion met

API: above_or_equal(metric=self-splicing fitness (ln), cutoff=-3) for item GAAGAGCAAUAUUACGGUUU
criterion met

Does the reported self-splicing fitness (ln) for GAACAGCAAUAUUACGGAGA fall at or above the -3 mark?
criterion met
